Tested on: CCRF-CEM leukemia
Experiment: NCI-60 one-dose screen, 48 h (100 = growth as untreated, 0 = no growth, -100 = all killed)
Conditions: 10 µM
About 83,000 compounds went through this panel and 20% of them were active in at least one assay; those are over-represented in the sample as a whole.
What growth was measured for each of the following?
Provide the reading as a plain figure in %.

Reported growth ( [O-][n+]1ccccc1S ) = 8.62

Reported growth ( Cc1cc(C(C)(C)c2ccc(O)c(C)c2)ccc1O ) = 127

Reported growth ( C=NCC#N ) = 118

Reported growth ( O=[N+]([O-])c1cc[n+]([O-])c2ccccc12 ) = -11.1

Reported growth ( COC(C(=O)C(O)C(C)O)C1Cc2cc3cc(OC4CC(OC(C)=O)C(OC5CC(O)C(OC)C(C)O5)C(C)O4)cc(O)c3c(O)c2C(=O)C1OC1CC(OC2CC(OC3CC(C)(O)C(OC(=O)C(C)C)C(C)O3)C(O)C(C)O2)C(O)C(C)O1 (centres undefined) ) = -13.4

Reported growth ( COC(=O)C1C(O)C(C)C(O)C(C)/C=C\C=C(C)C(=O)Nc2c(C)c(OC(C)=O)c3c(c2O)C(=O)C(C)=C2OCOC(=C23)C(C)=CC(C)(O)C(O)C(C)C1O (centres undefined) ) = 96.1

Reported growth ( O=[N+]([O-])/C=C\c1ccc2c(c1)OCO2 ) = 92.5

Reported growth ( COc1ccc(/C=C(\C)[N+](=O)[O-])cc1OC ) = -16.4

Reported growth ( COS(=O)(=O)c1ccccc1 ) = 99.7

Reported growth ( CC(C)(C)OOC(=O)/C=C\C(=O)OOC(C)(C)C ) = 96.4

Reported growth ( S=C=NCCc1ccccc1 ) = 16.7

Reported growth ( O=S(=O)(F)c1ccc(Cl)cc1 ) = 92.7

Reported growth ( COc1cc(/C=C(/C)[N+](=O)[O-])ccc1O ) = -35

Reported growth ( [Cl][Sn]([c]1ccccc1)([c]1ccccc1)[c]1ccccc1 ) = -46

Reported growth ( Oc1c(Cl)cc(Cl)c2ccccc12.[Cu+2] ) = 48.5

Reported growth ( O=C(CBr)Nc1ccc(Cl)cc1 ) = -28.3

Reported growth ( O=C(CCl)Nc1ccc(Cl)cc1 ) = 26.3

Reported growth ( Cc1cc(C)c(C[N+](C)(C)C)c(C)c1C ) = -2.18

Reported growth ( C/C1=C\[C@H](C)C[C@H](C)OC(=O)C[C@H](c2ccc(O)cc2)NC(=O)[C@@H](Cc2c(Br)[nH]c3ccccc23)N(C)C(=O)[C@H](C)NC(=O)[C@@H](C)C1 ) = -21.5

Reported growth ( CN(C)CC1(N)C(=O)NC(=O)NC1=O ) = 99.1

Reported growth ( O=C1CCC(=O)N1SC(Cl)(Cl)Cl ) = 94.5

Reported growth ( O=C(CBr)Nc1ccccc1 ) = 14.7

Reported growth ( ClCc1ccc2ccccc2n1 ) = 103

Reported growth ( CCCCCCCC[N+]12CN3CN(CN(C3)C1)C2 ) = 97.1

----------
Test system: CAKI-1 renal
Experiment: NCI-60 one-dose screen, 48 h (100 = growth as untreated, 0 = no growth, -100 = all killed)
Details: 10 µM
This is part of a sample that, as a whole, favours compounds with a hit. Of some 83,000 tested, about 20% had one in any assay.
Cut-off -40% on growth, inclusive. At or above means y; below means n.

Prompt line: Test whether the compound C=C1C(=O)O[C@@H]2C[C@@H](C)[C@@H]3C=CC(=O)[C@@]3(C)[C@@H](O)[C@H]12 records growth of -40% or higher.
Response line: n

Prompt line: Test whether the compound COc1cc(/C=C(/C)[N+](=O)[O-])ccc1O records growth of -40% or higher.
Response line: y

Prompt line: Test whether the compound COC12c3c(C)cc(O)c4c(=O)occ(c34)C(=O)C1C13COC(=O)c4c(O)cc(C)c(c41)C(=O)C2C3OC(C)=O (stereo not given) records growth of -40% or higher.
Response line: y

Prompt line: Test whether the compound CC(=O)Nc1c2sscc-2n(C)c1=O records growth of -40% or higher.
Response line: n

Prompt line: Test whether the compound O=[N+]([O-])c1ccc(N(CCO)CCO)c2c1no[n+]2[O-] records growth of -40% or higher.
Response line: y

Prompt line: Test whether the compound O=C1C=Cc2ccccc2C1=O records growth of -40% or higher.
Response line: y

Prompt line: Test whether the compound COc1cc(/C=C/[N+](=O)[O-])cc(OC)c1OC records growth of -40% or higher.
Response line: n

Prompt line: Test whether the compound CC/C(=C/c1ccc(OC)cc1OC)[N+](=O)[O-] records growth of -40% or higher.
Response line: y

Prompt line: Test whether the compound CC12OOC(c3ccccc31)c1c2ccc2ccccc12 (stereo not given) records growth of -40% or higher.
Response line: n

Prompt line: Test whether the compound C/C1=C\[C@H](C)C[C@H](C)OC(=O)C[C@H](c2ccc(O)cc2)NC(=O)[C@@H](Cc2c(Br)[nH]c3ccccc23)N(C)C(=O)[C@H](C)NC(=O)[C@@H](C)C1 records growth of -40% or higher.
Response line: n

----------
System: MALME-3M melanoma
Experiment: NCI-60 one-dose screen, 48 h
Settings: 10 µM
Procedure: Cells are grown in 96 well plates and exposed to the test compound for 48 hours. Compounds are tested at a single concentration, which is 10^-5 M for most compounds. The reported endpoint is percent growth (GI% or GIPRCNT), where numbers from 0 - 100% represent growth inhibition, and numbers from -100% - 0 represent cell death. For example, a value of 40 represents 60% growth inhibition. A value of 0 means no net growth occurred over the course of the experiment. […]
About 83,000 compounds went through this panel and 20% of them were active in at least one assay; those are over-represented in the sample as a whole. Active and inactive are the calls of the source. How the source made its calls: active means growth percent below 10; inactive means the rest.
A correct response names exactly one class from T = active, F = inactive

Prompt line: Each molecule tested received a call. Report the one for COc1cc2c(c(OC)c1OC)-c1ccc(O)c(=O)cc1[C@@H](NC(C)=O)CC2 .
Response line: F

Prompt line: Each molecule tested received a call. Report the one for CC[C@@H](C)[C@@H]1NC(=O)C(NC(=O)C(CC(C)C)N(C)C(=O)C2CCCN2C(=O)C(C)O)C(C)OC(=O)C(Cc2ccc(OC)cc2)N(C)C(=O)C2CCCN2C(=O)C(CC(C)C)NC(=O)C(C)C(=O)C(C(C)C)OC(=O)C[C@H]1O (some centres undefined) .
Response line: T

Prompt line: Each molecule tested received a call. Report the one for O=C(CCl)Nc1ccc(Cl)cc1 .
Response line: F

Prompt line: Each molecule tested received a call. Report the one for O=[N+]([O-])c1ccc(N2CCOCC2)c2c1no[n+]2[O-] .
Response line: T

----------
System: MDA-MB-435 melanoma
Assay: NCI-60 one-dose screen, 48 h (100 = growth as untreated, 0 = no growth, -100 = all killed)
Settings: 10 µM
Compounds without any hit were thinned out: in the full panel of roughly 83,000, 20% have a hit.
propertyName: growth (%)
Provide the reading as a plain figure in %.

Reported growth ( O=C1C(=O)c2ccccc2-c2ccccc21 ) = -97.9

Reported growth ( COc1cc([N+](=O)[O-])c2ncccc2c1[N+](=O)[O-] ) = 44.8

Reported growth ( O=[N+]([O-])/C=C\c1ccc2c(c1)OCO2 ) = -14.8

Reported growth ( C[C@@H]1C[C@@H]([C@H](O)CC2CC(=O)NC(=O)C2)C(=O)[C@@H](C)C1 ) = 9.77

Reported growth ( O=C1CCC(=O)N1SC(Cl)(Cl)Cl ) = 102

Reported growth ( O=S(=O)(F)c1ccc(Cl)cc1 ) = 108

Reported growth ( CC(C)(C)OOC(=O)/C=C\C(=O)OOC(C)(C)C ) = 119

Reported growth ( COc1cc2c(c(OC)c1OC)-c1ccc(O)c(=O)cc1[C@@H](NC(C)=O)CC2 ) = 45.6

Reported growth ( COc1ccc(/C=C(\C)[N+](=O)[O-])cc1OC ) = -59.1

Reported growth ( CN(CCCl)c1ccc(/C=C/C2=[N+](C)c3ccccc3C2(C)C)cc1 ) = 12

Reported growth ( CC(C)c1cc([N+](=O)[O-])cc([N+](=O)[O-])c1O ) = 108

Reported growth ( Cc1cc(C(C)(C)c2ccc(O)c(C)c2)ccc1O ) = 80.4

Reported growth ( N#CCc1ccccc1 ) = 110

Reported growth ( COc1ccccc1/C=C/[N+](=O)[O-] ) = 39.3

Reported growth ( COc1ccccc1[As]=[As]c1ccccc1OC (centres undefined) ) = -73.2

Reported growth ( Cc1ccc(NC(=O)CBr)cc1 ) = 102

Reported growth ( O=[N+]([O-])c1ccc(N2CCOCC2)c2c1no[n+]2[O-] ) = 29.2

Reported growth ( O=C(CBr)Nc1ccccc1 ) = 102

Reported growth ( CC/C(=C/c1ccc(OC)cc1OC)[N+](=O)[O-] ) = 46

Reported growth ( O=C1C=Cc2ccccc2C1=O ) = 5.35

Reported growth ( CS(=N)(=O)CCC(N)C(=O)O (centres undefined) ) = 99.8

Reported growth ( CC/C(=C/c1ccc(OC)cc1)[N+](=O)[O-] ) = 15.1

Reported growth ( [Cl][Sn]([c]1ccccc1)([c]1ccccc1)[c]1ccccc1 ) = -83.9

Reported growth ( COC12C(COC(N)=O)C3=C(C(=O)C(C)=C(N)C3=O)N1CC1C2N1C (centres undefined) ) = 68.6

Reported growth ( Oc1c(I)cc(I)cc1I ) = 113

Reported growth ( O=[N+]([O-])c1ccc(Br)c([N+](=O)[O-])c1 ) = 102

Reported growth ( Oc1c(Cl)cc(Cl)c2ccccc12.[Cu+2] ) = -83.4

Reported growth ( O=[P+](O)c1ccccc1 ) = 118

Reported growth ( CCOP(=O)(OCC)C(O)c1ccccc1Cl (centres undefined) ) = 119

Reported growth ( O=C(CCl)Nc1ccc(Cl)cc1 ) = 48.5

Reported growth ( CC[C@@H](C)[C@@H]1NC(=O)C(NC(=O)C(CC(C)C)N(C)C(=O)C2CCCN2C(=O)C(C)O)C(C)OC(=O)C(Cc2ccc(OC)cc2)N(C)C(=O)C2CCCN2C(=O)C(CC(C)C)NC(=O)C(C)C(=O)C(C(C)C)OC(=O)C[C@H]1O (some centres undefined) ) = -91.8

Reported growth ( CC(=O)Nc1c2sscc-2n(C)c1=O ) = -93.7

Reported growth ( S=C=NCCc1ccccc1 ) = 66.4

Reported growth ( O=[N+]([O-])c1cc[n+]([O-])c2ccccc12 ) = -70.7

Reported growth ( C=C1C(=O)O[C@@H]2C[C@@H](C)[C@@H]3C=CC(=O)[C@@]3(C)[C@@H](O)[C@H]12 ) = -88.2

Reported growth ( NC(=O)c1cc([N+](=O)[O-])c(Cl)c([N+](=O)[O-])c1Cl ) = 11.1

Reported growth ( C#CC1(O)CCC(C(C)(C)C)CC1 (centres undefined) ) = 89.8

Reported growth ( CCCCCCCC[N+]12CN3CN(CN(C3)C1)C2 ) = 95

Reported growth ( [Cl][Hg][c]1ccc(Cl)s1 ) = 4.96

Reported growth ( CN(C)CC1(N)C(=O)NC(=O)NC1=O ) = 103

Reported growth ( C/C(=C\c1ccc(Cl)c(Cl)c1)[N+](=O)[O-] ) = 126

Reported growth ( COS(=O)(=O)c1ccccc1 ) = 108

Reported growth ( CC(C)C1(NC(=O)C2CC3c4cccc5[nH]cc(c45)CC3N(C)C2)OC2(O)C3CCCN3C(=O)C(Cc3ccccc3)N2C1=O (centres undefined) ) = 102

Reported growth ( [O-][n+]1ccccc1S ) = 53.8

Reported growth ( COc1cc(/C=C(/C)[N+](=O)[O-])ccc1O ) = 6.19

Reported growth ( Cc1cc(C)c(C[N+](C)(C)C)c(C)c1C ) = 9.06

Reported growth ( CC[C@@]1(O)C[C@H](OC2CC(N(C)C)C(O)C(C)O2)c2c(cc3c(c2O)C(=O)c2c(O)ccc(O)c2C3=O)[C@H]1C(=O)OC (some centres undefined) ) = -95.7

Reported growth ( O=[N+]([O-])c1ccc(N(CCO)CCO)c2c1no[n+]2[O-] ) = 2.88

Reported growth ( O=[N+]([O-])/C=C/c1ccc(Cl)cc1[N+](=O)[O-] ) = 76.8

Taken from PubChem BioAssay (NCI).
